FYI, the data here is from patent US20230096766A1.

The entries below are paired with their reported Papp.
# test details: in vitro
# condition label: human, Caco-2, Caco-2 (cm/sec)
Where a SMILES comes first, the peptide text is derived from it. Bridges are numbered along the chain shown (N, C = ends). [ ]: non-standard residue; d: D form. The star is where a group is joined. ξ: configuration not given here. NMeF = CN[C@@H](Cc1ccccc1)C(=O)O; NMeL = CN[C@@H](CC(C)C)C(=O)O; ξIle = CC[C@H](C)C(N)C(=O)O; Piperidide = C1CCN(*)CC1; X8 = C1COC[C@@H](C*)N1; NBuGly = CCCCNCC(=O)O; Sar = CNCC(=O)O; tBu = CC(C)(C)*
Write it as a number; the unit ×10⁻⁶ cm/s goes unstated.

Query: Please look up its Papp: CCCCN1CC(=O)N(C)[C@@H](Cc2ccccc2)C(=O)N(C)[C@@H](CC(C)C)C(=O)N[C@@H](COC[C@@H]2COCCN2)C(=O)N(C)[C@@H](CC(C)C)C(=O)N[C@H](C(=O)N2CCCCC2)CC(=O)N(C)CC(=O)N(C)[C@@H](CC(C)C)C(=O)NC([C@@H](C)CC)C(=O)N(C)[C@@H](CC(C)C)C(=O)N[C@@H]([C@@H](C)O)C1=O (stereo partly drawn) [AP245] ([Sar][NMeL][ξIle][NMeL]T[NBuGly][NMeF][NMeL]S(X8)[NMeL]D-Piperidide; lactam N-11)
Response: 0.1

Query: Please look up its Papp: CC(C)C[C@H]1C(=O)N[C@@H](COC(C)(C)C)C(=O)N(C)[C@@H](Cc2ccccc2)C(=O)N(C)[C@@H](CC(C)C)C(=O)N[C@H](C(=O)N2CCCCC2)CC(=O)N[C@H](C(C)C)C(=O)N(C)[C@@H](Cc2ccccc2)C(=O)N[C@@H](C(C)C)C(=O)N(C)[C@@H](Cc2ccccc2)C(=O)N[C@@H]([C@@H](C)O)C(=O)N(C)CC(=O)N1C [pd210] ([dV][NMeF]V[NMeF]T[Sar][NMeL]S(tBu)[NMeF][NMeL]D-Piperidide; lactam N-11)
Response: 1.6

###

# test details: in vitro
# condition label: human, Caco-2, Caco-2 (cm/sec)
Where a SMILES comes first, the peptide text is derived from it. Bridges are numbered along the chain shown (N, C = ends). [ ]: non-standard residue; d: D form. The star is where a group is joined. hPhe(3-OMe,4-CONHMe) = CNC(=O)c1ccc(CC[C@H](N)C(=O)O)cc1OC; NMeF = CN[C@@H](Cc1ccccc1)C(=O)O; NMeL = CN[C@@H](CC(C)C)C(=O)O; NMeAbu = CC[C@H](NC)C(=O)O; Piperidide = C1CCN(*)CC1; NBuGly = CCCCNCC(=O)O; Sar = CNCC(=O)O
quantity: Papp (×10⁻⁶ cm/s)
Write it as a number; the unit ×10⁻⁶ cm/s goes unstated.

Query: Please look up its Papp: CCCCN1CC(=O)N(C)[C@@H](Cc2ccccc2)C(=O)N(C)[C@@H](CC(C)C)C(=O)N[C@@H](CC(C)C)C(=O)N(C)[C@@H](CC(C)C)C(=O)N[C@H](C(=O)N2CCCCC2)CC(=O)N(C)CC(=O)N(C)[C@@H](CC(C)C)C(=O)N[C@@H](CCc2ccc(C(=O)NC)c(OC)c2)C(=O)N(C)[C@@H](CC)C(=O)N[C@@H]([C@@H](C)O)C1=O [AP206] ([Sar][NMeL][hPhe(3-OMe,4-CONHMe)][NMeAbu]T[NBuGly][NMeF][NMeL]L[NMeL]D-Piperidide; lactam N-11)
Response: 0.86

###

# test details: Membrane permeability test of cyclic peptides (Caco-2, modified/improved method of WO 2018/124162)
# condition label: human, Caco-2, Caco-2 (cm/sec), membrane permeability of cyclic peptides, Caco-2
*1 amine or outer side, *2 acyl side, *3 side chain or, on linkers, in order; H or OH if unused. Where a SMILES comes first, the peptide text is derived from it. Bridges are numbered along the chain shown (N, C = ends). [ ]: non-standard residue; d: D form. The star is where a group is joined. ξ: configuration not given here. NMeHph(3-OMe-4-CONHMe) = CNC(=O)c1ccc(CC[C@H](NC)C(=O)O)cc1OC; X15 = CCCCN(CC(=O)C(C)[C@@H](CC(C)C)C(=O)[*:2])[*:1]; CH2(1,2,4-oxadiazolon-3-yl) = O=c1[nH]c(C*)no1; NMePhe(3-Cl) = CN[C@@H](Cc1cccc(Cl)c1)C(=O)O; NMeF = CN[C@@H](Cc1ccccc1)C(=O)O; NMeL = CN[C@@H](CC(C)C)C(=O)O; Piperidide = C1CCN(*)CC1; Propyl(3-OH) = OCCC*; ξS = NC(CO)C(=O)O; Sar = CNCC(=O)O
The entries below are paired with their reported Papp.
Write it as a number; the unit ×10⁻⁶ cm/s goes unstated.

CCCCN1CC(=O)C(C)[C@@H](CC(C)C)C(=O)NC(COCc2noc(=O)[nH]2)C(=O)N(C)[C@@H](Cc2ccccc2)C(=O)N(C)[C@@H](CC(C)C)C(=O)N[C@H](C(=O)N2CCCCC2)CC(=O)N[C@H](CC(C)C)C(=O)N(C)[C@@H](CC(C)C)C(=O)N[C@@H]([C@@H](C)CC)C(=O)N(C)[C@@H](CC(C)C)C(=O)N[C@@H]([C@@H](C)O)C1=O (stereo partly drawn) [AP44] ([dL][NMeL]I[NMeL]T[X15][ξS](CH2(1,2,4-oxadiazolon-3-yl))[NMeF][NMeL]D-Piperidide; lactam N-10)
0.3
CNC(=O)c1ccc(CC[C@H]2C(=O)N[C@@H](CC(C)C)C(=O)N(C)[C@@H](CC(C)C)C(=O)N[C@@H]([C@@H](C)O)C(=O)N(C)CC(=O)N(C)[C@@H](CC(C)C)C(=O)N[C@@H](CC(C)C)C(=O)N(C)[C@@H](Cc3ccccc3)C(=O)N(C)[C@@H](CC(C)C)C(=O)N[C@H](C(=O)N3CCCCC3)CC(=O)N[C@H](C(C)C)C(=O)N2C)cc1OC [AP224] ([dV][NMeHph(3-OMe-4-CONHMe)]L[NMeL]T[Sar][NMeL]L[NMeF][NMeL]D-Piperidide; lactam N-11)
1.1

Next molecule, please.
Query: Please look up its Papp: CC(C)C[C@@H]1NC(=O)[C@H](Cc2ccccc2)N(C)C(=O)[C@H](CC(C)C)N(C)C(=O)[C@H](COCCCO)NC(=O)[C@H](CC(C)C)N(C)C(=O)C[C@@H](C(=O)N2CCCCC2)NC(=O)[C@H](CC(C)C)N(C)C(=O)CN(C)C(=O)[C@H]([C@@H](C)O)NC(=O)[C@H](CC(C)C)N(C)C(=O)[C@H](Cc2cccc(Cl)c2)N(C)C1=O [AP97] ([NMeL]S(Propyl(3-OH))[NMeL][NMeF]L[NMePhe(3-Cl)][NMeL]T[Sar][NMeL]D-Piperidide; lactam N-11)
Response: 0.21

###

# test details: in vitro
# condition label: human, Caco-2, Caco-2 (cm/sec)
*1 amine or outer side, *2 acyl side, *3 side chain or, on linkers, in order; H or OH if unused. Where a SMILES comes first, the peptide text is derived from it. Bridges are numbered along the chain shown (N, C = ends). [ ]: non-standard residue; d: D form. The star is where a group is joined. ξ: configuration not given here. NMePhe(3-Cl) = CN[C@@H](Cc1cccc(Cl)c1)C(=O)O; Tyr(3-F) = N[C@@H](Cc1ccc(O)c(F)c1)C(=O)O; NMehPhe = CN[C@@H](CCc1ccccc1)C(=O)O; X9 = O=C([C@@H](CN[*:1])COCCO)[*:2]; Propyl(2,2-Me2,3-OH) = CC(C)(CO)C*; X6 = O=C([C@H](CCCCO)N[*:1])[*:2]; NMeF = CN[C@@H](Cc1ccccc1)C(=O)O; NMeD = CN[C@@H](CC(=O)O)C(=O)O; CH2CONHtBu = CC(C)(C)NC(=O)C*; NMeL = CN[C@@H](CC(C)C)C(=O)O; Butyl(3R-OH) = C[C@@H](O)CC*; NMeV = CN[C@H](C(=O)O)C(C)C; NMeAbu = CC[C@H](NC)C(=O)O; NMeA = CN[C@@H](C)C(=O)O; Piperidide = C1CCN(*)CC1; NBuGly = CCCCNCC(=O)O; NPrGly = CCCNCC(=O)O; ξV = CC(C)C(N)C(=O)O; Sar = CNCC(=O)O; tBu = CC(C)(C)*
quantity: Papp (×10⁻⁶ cm/s)
Write it as a number; the unit ×10⁻⁶ cm/s goes unstated.

The examples below pair each entry with its known result.
CC(C)C[C@@H]1NC(=O)[C@H](Cc2ccccc2)N(C)C(=O)[C@H](CC(C)C)N(C)C(=O)[C@H](COCC(=O)NC(C)(C)C)NC(=O)[C@H](CC(C)C)N(C)C(=O)C[C@@H](C(=O)N2CCCCC2)NC(=O)[C@H](C)N(C)C(=O)CN(C)C(=O)[C@H]([C@@H](C)O)NC(=O)[C@H](CC(C)C)N(C)C(=O)[C@H](CCc2ccccc2)N(C)C1=O [AP14] ([NMeL]S(CH2CONHtBu)[NMeL][NMeF]L[NMehPhe][NMeL]T[Sar][NMeA]D-Piperidide; lactam N-11)
0.39
CCCN1CC(=O)N(C)[C@@H](CC(C)C)C(=O)N[C@@H](CC(C)C)C(=O)N(C)[C@@H](Cc2ccccc2)C(=O)N(C)[C@@H](CC(C)C)C(=O)N[C@H](C(=O)N2CCCCC2)CC(=O)N[C@H](CC(C)C)C(=O)N(C)[C@@H](Cc2ccccc2)C(=O)NC[C@@H](COCCO)C(=O)N(C)[C@@H](CC(C)C)C(=O)N[C@@H]([C@@H](C)O)C1=O [AP127] ([dL][NMeF][X9][NMeL]T[NPrGly][NMeL]L[NMeF][NMeL]D-Piperidide; lactam N-11)
0.3
CC[C@H](C)[C@@H]1NC(=O)[C@H](CC(C)C)N(C)C(=O)[C@@H](C)NC(=O)C[C@@H](C(=O)N2CCCCC2)NC(=O)[C@H](C)N(C)C(=O)[C@H](Cc2ccccc2)N(C)C(=O)[C@H](COC(C)(C)C)NC(=O)[C@H](CC(C)C)N(C)C(=O)CN(C)C(=O)[C@H](Cc2ccc(O)c(F)c2)NC(=O)[C@H](CC(C)C)N(C)C1=O [pd124] ([dA][NMeL]I[NMeL][Tyr(3-F)][Sar][NMeL]S(tBu)[NMeF][NMeA]D-Piperidide; lactam N-11)
0.32
CC(C)C[C@H]1C(=O)N[C@@H]([C@@H](C)O)C(=O)N(C)CC(=O)N(C)[C@@H](C(C)C)C(=O)N[C@@H](Cc2ccccc2)C(=O)N(C)[C@@H](Cc2cccc(Cl)c2)C(=O)N(C)[C@@H](CC(C)C)C(=O)N(C)[C@H](C(=O)N2CCCCC2)CC(=O)N2CCC[C@H]2C(=O)N[C@@H](Cc2ccccc2)C(=O)N[C@@H](COC(C)(C)C)C(=O)N1C [pd162] (PFS(tBu)[NMeL]T[Sar][NMeV]F[NMePhe(3-Cl)][NMeL][NMeD]-Piperidide; lactam N-11)
1.2

Query: Please look up its Papp: CCCCN1CC(=O)N(C)[C@@H](CC(C)C)C(=O)N[C@H](C(=O)N2CCCCC2)CC(=O)N(C)[C@@H](C)C(=O)N[C@@H](COCC(C)(C)CO)C(=O)N(C)[C@@H](CC(C)C)C(=O)N(C)[C@@H](Cc2ccccc2)C(=O)N[C@@H](C(C)C)C(=O)N(C)[C@@H](Cc2ccccc2)C(=O)N(C)[C@@H](CC(C)C)C(=O)N[C@@H]([C@@H](C)O)C1=O [AP121] ([NMeA]S(Propyl(2,2-Me2,3-OH))[NMeL][NMeF]V[NMeF][NMeL]T[NBuGly][NMeL]D-Piperidide; lactam N-11)
Response: 3.1

Query: Please look up its Papp: CC[C@H]1C(=O)N[C@@H](CCCCO)C(=O)N(C)[C@@H](CC(C)C)C(=O)N(C)[C@@H](Cc2cccc(Cl)c2)C(=O)N[C@@H](CC(C)C)C(=O)N(C)[C@@H](CCc2ccccc2)C(=O)N(C)[C@@H](CC(C)C)C(=O)N[C@@H]([C@@H](C)O)C(=O)N(C)CC(=O)N(C)[C@@H](CC(C)C)C(=O)N[C@H](C(=O)N2CCCCC2)CC(=O)N1C [Compound B09] ([NMeAbu][X6][NMeL][NMePhe(3-Cl)]L[NMehPhe][NMeL]T[Sar][NMeL]D-Piperidide; lactam N-11)
Response: 0.31

Query: Please look up its Papp: CCCCN1CC(=O)N(C)[C@@H](CC(C)C)C(=O)N[C@H](C(=O)N2CCCCC2)CC(=O)N(C)[C@@H](C)C(=O)N[C@@H](COCC[C@@H](C)O)C(=O)N(C)[C@@H](CC(C)C)C(=O)N(C)[C@@H](Cc2cccc(Cl)c2)C(=O)N[C@@H](CC(C)C)C(=O)N(C)[C@@H](Cc2ccccc2)C(=O)N(C)[C@@H](C(C)C)C(=O)N[C@@H]([C@@H](C)O)C1=O [AP112] ([NMeA]S(Butyl(3R-OH))[NMeL][NMePhe(3-Cl)]L[NMeF][NMeV]T[NBuGly][NMeL]D-Piperidide; lactam N-11)
Response: 0.73

Query: Please look up its Papp: CC(C)C[C@@H]1NC(=O)[C@H](Cc2ccccc2)N(C)C(=O)C(C(C)C)NC(=O)C[C@@H](C(=O)N2CCCCC2)NC(=O)[C@H](Cc2ccccc2)N(C)C(=O)[C@H](Cc2ccccc2)N(C)C(=O)[C@H](COC(C)(C)C)NC(=O)[C@H](CC(C)C)N(C)C(=O)CN(C)C(=O)[C@H]([C@@H](C)O)NC(=O)[C@H](CC(C)C)N(C)C1=O (stereo partly drawn) [pd215] ([ξV][NMeF]L[NMeL]T[Sar][NMeL]S(tBu)[NMeF][NMeF]D-Piperidide; lactam N-11)
Response: 1.2

Query: Please look up its Papp: CC(C)C[C@@H]1NC(=O)[C@H](Cc2ccccc2)N(C)C(=O)[C@H]2CCCN2C(=O)C[C@@H](C(=O)N2CCCCC2)NC(=O)[C@H](Cc2ccccc2)N(C)C(=O)[C@H](Cc2ccccc2)N(C)C(=O)[C@H](COC(C)(C)C)NC(=O)[C@H](CC(C)C)N(C)C(=O)CN(C)C(=O)[C@H]([C@@H](C)O)NC(=O)[C@H](CC(C)C)N(C)C1=O [pd206] ([dP][NMeF]L[NMeL]T[Sar][NMeL]S(tBu)[NMeF][NMeF]D-Piperidide; lactam N-11)
Response: 1.8
